target: Bromodomain-containing protein 4 (Homo sapiens, UniProt O60885)
property: pIC50
Scale: pIC50 equals -log10([C]), with [C] in mol/L.

Below are worked cases with known answers.
| compound | tested_system | pIC50 |
| --- | --- | --- |
| Cc1noc(C)c1-c1ccc2c(c1)C(c1ccccc1)N(CC(=O)NCCCC(=O)Nc1cccc3c1CN(C1CCC(=O)NC1=O)C3=O)C(=O)N2C (stereo not drawn) | Bromodomain-containing protein 4 (Homo sapiens, UniProt O60885) | 6.86 |
| Cc1noc(C)c1-c1ccc2c(c1)C(c1ccccc1)N(CCCCCCC(=O)Nc1cccc3c1CN(C1CCC(=O)NC1=O)C3=O)C(=O)N2C (stereo not drawn) | Bromodomain-containing protein 4 (Homo sapiens, UniProt O60885) | 6.93 |

Bromodomain-containing protein 4 (Homo sapiens, UniProt O60885) pIC50 of Cc1noc(C)c1-c1ccc2c(c1)C(c1ccccc1)N(Cc1cn(CCOCC(=O)Nc3cccc4c3CN(C3CCC(=O)NC3=O)C4=O)nn1)C(=O)N2C (stereo not drawn) is 7.85

The value of pIC50 recorded for Cc1noc(C)c1-c1ccc2c(c1)C(c1ccccc1)N(Cc1cn(CCOCCOCCOCCOCC(=O)Nc3cccc4c3CN(C3CCC(=O)NC3=O)C4=O)nn1)C(=O)N2C (stereo not drawn) when tested on Bromodomain-containing protein 4 (Homo sapiens, UniProt O60885) reads 7.65

Bromodomain-containing protein 4 (Homo sapiens, UniProt O60885) assay, compound Cc1noc(C)c1-c1ccc2c(c1)C(c1ccccc1)N(Cc1cn(CCOCCOCCOCC(=O)Nc3cccc4c3C(=O)N(C3CCC(=O)NC3=O)C4=O)nn1)C(=O)N2C (stereo not drawn) , recorded pIC50 = 7.16

Observed pIC50 on Bromodomain-containing protein 4 (Homo sapiens, UniProt O60885), entry Cc1noc(C)c1-c1ccc2c(c1)C(c1ccccc1)N(Cc1cn(CCOCC(=O)Nc3cccc4c3C(=O)N(C3CCC(=O)NC3=O)C4=O)nn1)C(=O)N2C (stereo not drawn) , equals 7.38

Given the compound Cc1noc(C)c1-c1ccc2c(c1)C(c1ccccc1)N(Cc1cn(CCOCCOCCOCCOCC(=O)Nc3cccc4c3C(=O)N(C3CCC(=O)NC3=O)C4=O)nn1)C(=O)N2C (stereo not drawn) and test system Bromodomain-containing protein 4 (Homo sapiens, UniProt O60885), the measured pIC50 is 6.76

Entry Cc1noc(C)c1-c1ccc2c(c1)C(c1ccccc1)N(CC(=O)NCCCCC(=O)Nc1cccc3c1CN(C1CCC(=O)NC1=O)C3=O)C(=O)N2C (stereo not drawn) under Bromodomain-containing protein 4 (Homo sapiens, UniProt O60885) had pIC50 of 6.87

Record Cc1noc(C)c1-c1ccc2c(c1)C(c1ccccc1)N(CC(=O)NCCCCCCC(=O)Nc1cccc3c1CN(C1CCC(=O)NC1=O)C3=O)C(=O)N2C (stereo not drawn) / Bromodomain-containing protein 4 (Homo sapiens, UniProt O60885), pIC50 recorded as 7.09

Considering Cc1noc(C)c1-c1ccc2c(c1)C(c1ccccc1)N(CCCCCC(=O)Nc1cccc3c1CN(C1CCC(=O)NC1=O)C3=O)C(=O)N2C (stereo not drawn) , its pIC50 with Bromodomain-containing protein 4 (Homo sapiens, UniProt O60885) was recorded as 6.87

###

target: Bromodomain-containing protein 4 (Homo sapiens); conditions: at 500 nM
Description: Inhibition of recombinant human GST-tagged BRD4 BD1 (44 to 168 residues) expressed in Escherichia coli at 500 nM incubated for 60 mins by alphascreen assay relative to control
property: inhibition (%)
Give the value in % but do not write % after it.

Solved cases below.
| compound | inhibition (%) |
| --- | --- |
| Cc1noc(C)c1-c1ccc2c(c1)C(c1ccccc1)N(CCCCCC(=O)Nc1cccc3c1CN(C1CCC(=O)NC1=O)C3=O)C(=O)N2C (stereo not given) | 93 |
| Cc1noc(C)c1-c1ccc2c(c1)C(c1ccccc1)N(Cc1cn(CCOCCOCCOCC(=O)Nc3cccc4c3CN(C3CCC(=O)NC3=O)C4=O)nn1)C(=O)N2C (stereo not given) | 100 |

Sample Cc1noc(C)c1-c1ccc2c(c1)C(c1ccccc1)N(CC(=O)NCCCCCCCC(=O)Nc1cccc3c1CN(C1CCC(=O)NC1=O)C3=O)C(=O)N2C (stereo not given) ; inhibition observed: 96

Lab note: measured inhibition of Cc1noc(C)c1-c1ccc2c(c1)C(c1ccccc1)N(CCCCCCC(=O)Nc1cccc3c1CN(C1CCC(=O)NC1=O)C3=O)C(=O)N2C (stereo not given) was 96

Reported inhibition of Cc1noc(C)c1-c1ccc2c(c1)C(c1ccccc1)N(Cc1cn(CCOCC(=O)Nc3cccc4c3CN(C3CCC(=O)NC3=O)C4=O)nn1)C(=O)N2C (stereo not given) : 99

###

target: Bromodomain-containing protein 4 (Homo sapiens)
property: IC50 (nM)
Write the answer as a number in nM, unit excluded.

# count of solved cases: 2
| molecule | measurement_unit | reported_measurement |
| --- | --- | --- |
| Cc1noc(C)c1-c1ccc2c(c1)C(c1ccccc1)N(CC(=O)NCCC(=O)Nc1cccc3c1CN(C1CCC(=O)NC1=O)C3=O)C(=O)N2C (stereo not drawn) | nM | 132 |
| Cc1noc(C)c1-c1ccc2c(c1)C(c1ccccc1)N(Cc1cn(CCOCCOCC(=O)Nc3cccc4c3CN(C3CCC(=O)NC3=O)C4=O)nn1)C(=O)N2C (stereo not drawn) | nM | 15.4 |

Turning to the following molecule.
Tested on Bromodomain-containing protein 4 (Homo sapiens), the item Cc1noc(C)c1-c1ccc2c(c1)C(c1ccccc1)N(Cc1cn(CCOCCOCC(=O)Nc3cccc4c3C(=O)N(C3CCC(=O)NC3=O)C4=O)nn1)C(=O)N2C (stereo not drawn) showed IC50 equal to 67.7

###

molecular target: Bromodomain-containing protein 4 (Homo sapiens, UniProt O60885); conditions: at 500 nM
property: inhibition
Report as: number unit

| molecule | tested_system | inhibition |
| --- | --- | --- |
| Cc1noc(C)c1-c1ccc2c(c1)C(c1ccccc1)N(CC(=O)NCCCCCC(=O)Nc1cccc3c1CN(C1CCC(=O)NC1=O)C3=O)C(=O)N2C (stereo not given) | Bromodomain-containing protein 4 (Homo sapiens, UniProt O60885) | 98% |
| Cc1noc(C)c1-c1ccc2c(c1)C(c1ccccc1)N(CC(=O)NCCCCC(=O)Nc1cccc3c1CN(C1CCC(=O)NC1=O)C3=O)C(=O)N2C (stereo not given) | Bromodomain-containing protein 4 (Homo sapiens, UniProt O60885) | 91% |
| Cc1noc(C)c1-c1ccc2c(c1)C(c1ccccc1)N(CC(=O)NCCCCCCC(=O)Nc1cccc3c1CN(C1CCC(=O)NC1=O)C3=O)C(=O)N2C (stereo not given) | Bromodomain-containing protein 4 (Homo sapiens, UniProt O60885) | 100% |
| Cc1noc(C)c1-c1ccc2c(c1)C(c1ccccc1)N(Cc1cn(CCOCCOCCOCC(=O)Nc3cccc4c3C(=O)N(C3CCC(=O)NC3=O)C4=O)nn1)C(=O)N2C (stereo not given) | Bromodomain-containing protein 4 (Homo sapiens, UniProt O60885) | 86% |

Now examine the next entry.
Record summary for Cc1noc(C)c1-c1ccc2c(c1)C(c1ccccc1)N(CC(=O)NCCC(=O)Nc1cccc3c1CN(C1CCC(=O)NC1=O)C3=O)C(=O)N2C (stereo not given) : reported inhibition = 94%
